# Lookup of reported pIC50 keyed by entry
biological target: farnesyl protein transferase (FPT), partially purified from rat brain (Rattus norvegicus, UniProt Q02293+Q04631); construct: were partially purified from rat brain by ammonium sulfate fractionation followed by Q-Sepharose; assay: Inhibition of farnesyl protein transferase (transfer of [3H]farnesyl to Ras-CVLS); type: biochemical; settings: Ras-CVLS farnesylation, partially purified rat brain FPT; read-out: FPT IC50
On this scale, pIC50 is minus log10 of a concentration expressed in M (mol/L).

[
  {
    "Compound": "O=C(Nc1cccnc1)N1CCC(C2c3ccc(Cl)cc3C=Cc3cccnc32)CC1 (centres unmarked)",
    "pIC50": 5.88
  },
  {
    "Compound": "O=C(Cc1cccnc1)N1CCC(=C2c3ccc(Cl)cc3CC(O)c3cccnc32)CC1 (centres unmarked)",
    "pIC50": 4.64
  },
  {
    "Compound": "CC(C)(C)c1cnc2c(c1)CCc1cc(Cl)ccc1C2=C1CCN(C(=O)Cc2cccnc2)CC1",
    "pIC50": 5.58
  }
]

Req: Fill in the blank: the reported pIC50 of O=C(Nc1ccncc1)N1CCC(C2c3ccc(Cl)cc3CCc3cccnc32)CC1 (centres unmarked) is ____.
Resp: 6.08

Req: Quick one: pIC50 for O=C(Cc1ccncc1)N1CCC(=C2c3ccc(Cl)cc3CCc3c(Cl)ccnc32)CC1 ?
Resp: 6.72

Req: I have this compound here, Cn1cc(Br)c(=O)c2c1C(=C1CCN(C(=O)Cc3ccncc3)CC1)c1ccc(Cl)cc1CC2 , and I need its recorded pIC50.
Resp: 5.43

Req: Name the reported pIC50 value associated with the compound CC1(C2CCN(C(=O)Cc3ccncc3)CC2)c2ccc(Cl)cc2CCc2cccnc21 (centres unmarked)
Resp: 6.15

Req: What value of measured pIC50 is listed for CC(C)(C(=O)N1CCC(C2c3ccc(Cl)cc3C=Cc3cccnc32)CC1)c1cccnc1 (centres unmarked) ?
Resp: 5.91

====

molecular target: farnesyl protein transferase (FPT), partially purified from rat brain (Rattus norvegicus, UniProt Q02293+Q04631); construct: were partially purified from rat brain by ammonium sulfate fractionation followed by Q-Sepharose; test: Inhibition of farnesyl protein transferase (transfer of [3H]farnesyl to Ras-CVLS); format: biochemical; conditions: Ras-CVLS farnesylation, partially purified rat brain FPT; read-out: FPT IC50
Recorded Endpoint: log10(IC50) (log10 of the value in µM)
Hi team, quick reminder: these entries are log10 of IC50 (µM).

Here is how some compounds turned out for log10(IC50).
[
  {
    "Compound": "CC(=O)N1CCC(C(=O)N2CCC(=C3c4ccc(Cl)cc4CCc4cccnc43)CC2)CC1 [Example 89]",
    "log10(IC50)": 0.26
  },
  {
    "Compound": "O=C(Cc1ccnc(-n2ccnc2)c1)N1CCC(=C2c3ccc(Cl)cc3CCc3cc(Br)cnc32)CC1 [Example 410-T]",
    "log10(IC50)": 0.26
  },
  {
    "Compound": "O=C(C1CCNCC1)N1CCC(=C2c3ccc(Cl)cc3CCc3cccnc32)CC1 [Example 100]",
    "log10(IC50)": 0.65
  },
  {
    "Compound": "CN1CCC(CC(=O)N2CCC(C3c4ccc(Cl)cc4C=Cc4cc(Br)cnc43)CC2)CC1 (centres unmarked) [Example 400-B]",
    "log10(IC50)": -1.17
  },
  {
    "Compound": "NCC(=O)N1CCC(CC(=O)N2CCN(C3c4ccc(Cl)cc4CCc4cccnc43)CC2)CC1 (centres unmarked) [Example 433-C]",
    "log10(IC50)": 0.40
  },
  {
    "Compound": "O=C(Nc1cccnc1)N1CCC(=C2c3ccc(Cl)cc3CCc3cccnc32)CC1 [Example 292]",
    "log10(IC50)": 0.00
  },
  {
    "Compound": "O=C(c1c[nH]c2ccccc12)N1CCC(=C2c3ccc(Cl)cc3CCc3cccnc32)CC1 [Example 30]",
    "log10(IC50)": 0.76
  },
  {
    "Compound": "O=C(Cc1ccncc1)N1CCC(=C2c3ccc(Cl)cc3C(O)Cc3cccnc32)CC1 (centres unmarked) [Example 286]",
    "log10(IC50)": 0.18
  },
  {
    "Compound": "O=C(Cc1cc[n+]([O-])cc1)N1CCC(C2c3ccc(Cl)cc3C=Cc3cc(Br)cnc32)CC1 (centres unmarked) [Example 400-C]",
    "log10(IC50)": -1.52
  },
  {
    "Compound": "CC(C)(C(=O)N1CCN(C2c3ccc(Cl)cc3CCc3cccnc32)CC1)c1ccccc1 (centres unmarked) [Example 190]",
    "log10(IC50)": 0.52
  }
]

Kindly review the next compound as well.
Req: Item NC(=O)c1ccc2c(c1)CCc1cccnc1C2=C1CCN(C(=O)Cc2ccncc2)CC1 [Example 436-D] has what recorded log10(IC50)?
Resp: -0.12
